Cited source: PubChem BioAssay (NCI)

system: MDA-MB-435; assay: NCI tumour cell line growth inhibition, 48 h
Measured TGI of individual entries
metric_name: TGI

>>> df
                                   compound  metric_name  assay_result
0     COc1c(O)cc(O)c2c(=O)cc(-c3ccccc3)oc12          TGI      > 100 µM
1  COc1ccc(C(SC2C(O)C(CO)OC2n2ccc(N)nc2=O)(c2ccccc2)c2ccc(OC)cc2)cc1 (stereo not given)          TGI       28.2 µM
2          CSc1n[nH]c(N)c1C(=O)Nc1ccc(C)cc1          TGI      > 100 µM
3  Nc1nc(Nc2ccc(C3CCC(N4CCOCC4)CC3)cc2)nn1-c1ccccn1 (stereo not given)          TGI      > 100 µM
4  COc1ccc(NC(C)=O)cc1N1C(=O)/C(=C\c2cc(OC)c(OC)c(OC)c2)SC1c1ccccc1 (stereo not given)          TGI      > 100 µM
